experiment: Blood sampling for THC and CBD plasma concentration after single oral dosing; conditions: dog, plasma, oral, THC level in blood plasma fraction, individual dogs 5-8; 0.12 mg/kg THC + 0.24 mg/kg CBD oral once; 0 h
measureName: concentration at 0 h (ng/mL)
Field format: number, assumed ng/mL, no unit text.

// query Write down concentration at 0 h measured for item CCCCCc1cc(O)c2c(c1)OC(C)(C)[C@@H]1CCC(C)=C[C@@H]21 [THC, Δ^9-Tetrahydrocannabinol]
// result 0

====

experiment: Blood sampling for THC and CBD plasma concentration after single oral dosing; details: dog, plasma, oral, CBD concentration in blood plasma, individual dogs 5-8; 0.24 mg/kg CBD + 0.12 mg/kg THC oral once; 16 h
measureName: concentration at 16 h (ng/mL)
Field format: number, assumed ng/mL, no unit text.

// query Write down concentration at 16 h measured for item `C=C(C)[C@@H]1CCC(C)=C[C@H]1c1c(O)cc(CCCCC)cc1O`
// result 0.55
